# TARGET_ENTITY: LXRβ (Homo sapiens)
# Construct: Co-transfection expression plasmids, comprising full-length LXRα (pCMX-h LXRα[…] or LXRβ (pCMX-hLXRβ)); expressed in transfected cells; host or cells: CV-1 African Green Monkey Kidney Cells
# Sequence (P55055 whole entry): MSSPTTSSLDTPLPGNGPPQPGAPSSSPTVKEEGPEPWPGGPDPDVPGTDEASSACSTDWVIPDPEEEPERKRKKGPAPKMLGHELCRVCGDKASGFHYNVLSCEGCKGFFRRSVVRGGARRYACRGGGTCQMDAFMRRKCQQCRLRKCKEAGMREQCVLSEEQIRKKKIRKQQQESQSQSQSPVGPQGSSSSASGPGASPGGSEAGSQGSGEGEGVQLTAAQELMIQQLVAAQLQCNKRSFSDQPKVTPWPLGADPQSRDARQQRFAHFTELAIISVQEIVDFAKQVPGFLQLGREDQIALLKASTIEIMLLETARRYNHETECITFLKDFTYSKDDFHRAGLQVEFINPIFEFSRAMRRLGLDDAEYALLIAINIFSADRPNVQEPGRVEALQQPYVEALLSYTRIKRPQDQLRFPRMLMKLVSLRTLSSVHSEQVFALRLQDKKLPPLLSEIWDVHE
# Sequence (P19793 whole entry partner): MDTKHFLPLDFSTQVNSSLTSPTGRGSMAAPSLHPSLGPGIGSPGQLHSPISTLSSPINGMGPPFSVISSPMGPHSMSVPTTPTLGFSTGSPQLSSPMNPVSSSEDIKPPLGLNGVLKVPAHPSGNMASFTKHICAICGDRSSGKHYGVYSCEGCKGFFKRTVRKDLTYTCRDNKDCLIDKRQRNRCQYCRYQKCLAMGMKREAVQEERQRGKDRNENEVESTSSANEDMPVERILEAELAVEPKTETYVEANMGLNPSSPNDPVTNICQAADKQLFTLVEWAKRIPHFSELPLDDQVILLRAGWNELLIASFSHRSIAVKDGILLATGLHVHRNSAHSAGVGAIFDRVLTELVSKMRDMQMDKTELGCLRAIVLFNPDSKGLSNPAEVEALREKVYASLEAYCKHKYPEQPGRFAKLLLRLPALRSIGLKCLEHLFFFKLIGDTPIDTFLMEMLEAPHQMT
# METHOD: Co-transfection assay (LXRE luciferase reporter), LXRβ
# Format: cell-based
# CONDITION_LABEL: LXRβ co-transfection; relative to high control 1-(2,4-difluorobenzyl)-2-oxo-6-(4-phenoxyphenyl)-4-(trifluoromethyl)-1,2-dihydropyridine-3-carbonitrile; read-out: % Efficacy
Provide the reported Emax of each item.
Give bare numbers, in %.

MOL_SMILES	Emax (%)
Cc1nc(-c2cc(-c3cc(F)c(CO)c(S(C)(=O)=O)c3)ccc2-n2cc(C(F)(F)F)nc2C)c(-c2ccc(OC(F)F)c(OC3CC3)c2)o1	73
Cc1nc(C(F)(F)F)cn1-c1c(F)cc(-c2ccc(CO)c(S(C)(=O)=O)c2)cc1-n1nncc1-c1ccc(OC(F)(F)F)cc1	71
Cc1nc(C(F)(F)F)cn1-c1ccc(-c2cccc(S(C)(=O)=O)c2)cc1-c1nc(CC(C)C)oc1-c1ccc(OC(F)(F)F)cc1	77
Cc1nc(C(C)(F)F)cn1-c1ccc(-c2cccc(S(C)(=O)=O)c2)cc1-n1nncc1-c1ccc(Cl)cc1Cl	48
COc1cc(-c2oc(C)nc2-c2cc(-c3cc(F)c(CO)c(S(C)(=O)=O)c3)ccc2-n2cc(C(F)(F)F)nc2C)ccc1OC(F)F	81

Proceed to the following item.
For the compound `Cc1nc(C(F)(F)F)cn1-c1ccc(-c2cccc(S(C)(=O)=O)c2)cc1-n1nncc1-c1ccc(C(C)C)cc1` , the measured Emax on LXRβ (Homo sapiens) was 80
